Quick list: protein stability index per entry.
experiment: protein stability index of a GFP-peptide fusion (yeast GPS) (PSI 1-4); higher = more stable; sorted into four equal gates, so the index is relative within each strain; details: doa10∆
Recorded Metric: protein stability index

INSERT INTO measurements (query_sequence, recorded_metric, result) VALUES
  ('YLAENPDPNFENSIGYN [PRP8]', 'protein stability index', 3.28),
  ('ANTNSVTSMEAAREKKI [YIL149C/MLP2]', 'protein stability index', 3),
  ('VANQTSATFLRIVGSEL [RPT2]', 'protein stability index', 2.45),
  ('TSPFGGARPGRVARRNA [RPS9A]', 'protein stability index', 2.8),
  ('EVLNRVASRHPSESEHP [YDL116W/NUP84]', 'protein stability index', 2.94),
  ('IGLVKCTQMTDEGLLNM [GRR1]', 'protein stability index', 3.01),
  ('FIRYDVKTPKKTKYILQ [CSN12]', 'protein stability index', 2.34),
  ('EEKPDVTYSDVGGCKDQ [RPT1]', 'protein stability index', 3.48),
  ('TKNLSILTSKVNAIKNE [DSN1]', 'protein stability index', 1.66),
  ('KKVNYKVTSYDITGDIR [ISW2]', 'protein stability index', 2.72),
  ('ITIDSVVDANGCVNSLI [YMR129W/POM152]', 'protein stability index', 3.01),
  ('KEQTIQLPSKFTCSCNS [RPN14]', 'protein stability index', 2.15),
  ('LNAELESKLIPQENDLE [SMC3]', 'protein stability index', 3.12),
  ('IRNLTVFTMKELAQYMK [RGR1]', 'protein stability index', 3.04),
  ('TDPKELYNNAHVYARDL [RPC40]', 'protein stability index', 3.51),
  ('VVFRDPYKYRLREEIFI [RPL2A]', 'protein stability index', 2.47),
  ('VLMERKDERGEGEAKQK [ITC1]', 'protein stability index', 2.94),
  ('DENAPVATNANATTDQE [PRE10]', 'protein stability index', 3.09),
  ('SNDFEEGSTIRYLAVTL [YMR129W/POM152]', 'protein stability index', 2.06),
  ('FLARVIKEKFDEFIKTH [IRR1]', 'protein stability index', 2.79),
  ('ATGISGSVSEETELFEP [ECM29]', 'protein stability index', 3.22),
  ('PTLFDLAFNYITYDKQE [SRP68]', 'protein stability index', 2.39),
  ('NNLFRIIAELSFLKVDP [YJL039C/NUP192]', 'protein stability index', 3.08),
  ('EGIEIYDRKKLPRKEVD [RPC11]', 'protein stability index', 3.14),
  ('RLRTLCRDSDDHKRFIV [DIS3]', 'protein stability index', 2.68),
  ('RRKKILNEIELDNLKLK [GRR1]', 'protein stability index', 3.04),
  ('IKCSQSSHLSDNDFIIN [POP5]', 'protein stability index', 2.96),
  ('SSNILEDILYYSTCPSE [SRB8]', 'protein stability index', 2.4),
  ('ETRAELSQLCAVPLQIV [RPO21]', 'protein stability index', 1.96),
  ('TGLKLYSRITLIIDDPS [RPP1]', 'protein stability index', 2.22),
  ('KQVQISHHLKADTIDHD [YGL172W/NUP49]', 'protein stability index', 2.91),
  ('KVSSLKMFIQRILAMCV [YCS4]', 'protein stability index', 2.64),
  ('FTLKQWNRLTISVTDTE [COR1]', 'protein stability index', 1.32),
  ('HHDGKLWNLNAYRTDVI [PRP8]', 'protein stability index', 2.94),
  ('LPDPILKNFLSYESLKK [MCD1]', 'protein stability index', 3),
  ('DKQAEGTPLFTFGKKAD [YOR098C/NUP1]', 'protein stability index', 2.43),
  ('QMIELNRQICLVQKTVQ [GRR1]', 'protein stability index', 3.03),
  ('HDVLQKLNTLSEILSFD [YML103C/NUP188]', 'protein stability index', 2.99),
  ('IDDKTQNDELTMGMRAL [DIS3]', 'protein stability index', 2.74),
  ('TPIAGRFTPGSFTNYIT [RPS0A]', 'protein stability index', 3.01),
  ('PLNDGFVDLVEHFLKLN [YML103C/NUP188]', 'protein stability index', 1.84),
  ('LIELSGGQRSLIALSLI [SMC2]', 'protein stability index', 2.42),
  ('CILYDADESKMAKLNEC [RET1]', 'protein stability index', 2.28),
  ('QIDQLNRLLPNLPEEER [GRR1]', 'protein stability index', 2.62),
  ('WGHPTRMLLNLCKSATT [BRR2]', 'protein stability index', 1.47),
  ('EPEEEKSKREEEAKSVL [ARP9]', 'protein stability index', 3.15),
  ('KAKIIPGNGKHASENIS [SIR4]', 'protein stability index', 2.61),
  ('VSNRVAAPARAGAVAPE [RPP0]', 'protein stability index', 2.06),
  ('YILANHYLSRVLSDQVG [YJL039C/NUP192]', 'protein stability index', 2.87),
  ('KIYMLYSLQPSVDITGG [RPC34]', 'protein stability index', 1.94),
  ('DPTLTTTTSFTTSEATA [RPN4]', 'protein stability index', 2.85),
  ('SLAKSSALWSSRKGIAF [ECM29]', 'protein stability index', 1.9),
  ('YRLMIKRLNFSFVGDYM [GRR1]', 'protein stability index', 2),
  ('NENKVIIELPNEKFEIE [SRB4]', 'protein stability index', 2.89),
  ('GAHGNSDPVCLFVCNKD [POP3]', 'protein stability index', 3),
  ('LLKDDTYQLCVRLRSNV [RPN3]', 'protein stability index', 1.47),
  ('KEEFRLMISPKDEETTE [RRI2]', 'protein stability index', 1.75),
  ('KFLNFRPPNGIKNFKSL [SSN2]', 'protein stability index', 1.87),
  ('VKKPQKSKTSTGKERSK [SNM1]', 'protein stability index', 3.15),
  ('PSFTDEQWITIESQMRD [PRP8]', 'protein stability index', 2.44);
